Test system: OVCAR-3 ovarian
Experiment: NCI tumour cell line growth inhibition, 48 h; in the data active = GI50 below about 0.43 µM; inactive = the rest
Result category, one only: yes (active), no (inactive)

In [3]: df
Out[3]:
                                   compound   assayed_target  classification
0  COc1ccc(-c2csc(NC(=O)c3cc(O)c(O)c(O)c3)n2)cc1  OVCAR-3 ovarian              no

Query :: For Cn1c(=O)c(Oc2ccccc2)cc2cnc(NC3CCOCC3)nc21 , what call appears in the results of this test?
Result :: no

Query :: Look up the recorded call for COc1ccc2c(c1)/C(=C/c1cc(OC)c(OC)c(OC)c1)C(=O)N2C in this test.
Result :: no

Query :: Any idea what this test logged for CC(C)Nc1ncc2cc(Oc3ccc(F)cc3F)c(=O)n(C)c2n1 ?
Result :: no

Query :: Kindly provide the recorded test outcome for the following compound: CC(=O)OC1Oc2ccccc2-c2oc(=O)c(-c3cc4ccccc4oc3=O)cc21 (stereo not drawn)
Result :: no

Query :: Which outcome did this test record for the compound OCc1ccc(N(CCN2CCCC2)Cc2ccc(F)cc2)cc1Cl ?
Result :: no

Query :: Answer briefly: the call reported for CCNCCCn1c2c(c3ccc([N+](=O)[O-])cc3c1=O)C(=O)c1cc(OC)cnc1-2 in this assay.
Result :: yes

Query :: Tell me the recorded outcome of this test for Cc1ccc(Sc2sc(-c3ccccc3)nc2[P+](c2ccccc2)(c2ccccc2)c2ccccc2)cc1 .
Result :: yes
